Experiment: in vivo
Details: CD1, mouse, iv

# compound, MRT last
records = [
    ("O=C(Nc1ccc([N+](=O)[O-])cc1Cl)c1cc(Cl)ccc1O [NIC, Niclosamide]", "54 min"),
]

###

Assay: in vivo
Details: CD1, mouse, iv

# compound, value.unit, Tmax
rows = [
    ("O=C(Nc1ccc([N+](=O)[O-])cc1Cl)c1cc(Cl)ccc1O [NIC, Niclosamide]", "min", 12),
]

###

Assay: Pilot study, LD50 of NIC formulated in DMA/PEG 400
Design: species or system nude mice
Settings: nude, mouse, in vivo

# compound, LD50
rows = [
    ("O=C(Nc1ccc([N+](=O)[O-])cc1Cl)c1cc(Cl)ccc1O [NIC, Niclosamide]", "5 mg/kg"),
]
